Where do the numbers come from? From patent US20260092093A1.

- assay_target: T1, recombinant hIL-18Rα extracellular domain (human, UniProt Q13478 22-329, biotin label (selection) or fluorescent probe (single-clone FACS), sites not given)
- T1 construct: extracellular domain; also called hIL-18Rα ECD; hIL-18Rα-ECD
- T1 sequence (looked up): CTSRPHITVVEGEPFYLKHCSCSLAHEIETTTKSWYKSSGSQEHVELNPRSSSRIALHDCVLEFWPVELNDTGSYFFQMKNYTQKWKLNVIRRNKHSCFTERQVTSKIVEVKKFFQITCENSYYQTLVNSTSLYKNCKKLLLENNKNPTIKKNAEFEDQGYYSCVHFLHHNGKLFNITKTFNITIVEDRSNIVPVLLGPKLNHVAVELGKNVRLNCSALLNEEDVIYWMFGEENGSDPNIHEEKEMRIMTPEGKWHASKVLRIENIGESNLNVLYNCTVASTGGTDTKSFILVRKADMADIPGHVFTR
- procedure_summary: single-clone FACS, yeast display, 10 nM labelled hIL-18Rα ECD
- Procedure: Following the screens described in Example 2, single clone FACS analysis was performed to verify the binding of selected yeast cell surface-expressed IL-18 variant polypeptides from Round 4 and Round 5 to 10 nM hIL-18Rα-ECD. Briefly, each yeast clone at the same density was incubated with 10 nM IL-18Rα-ECD labeled by fluorescent probe, respectively, followed by washing step. Then the ratio of fluorescent positive IL-18Rα ECD binding yeasts in the population of each clone were analyzed.
property_measured: % of fluorescence positive cells (%)
Answers are plain numbers, in %.

Some entries whose results are on file:
| binder | % of fluorescence positive cells, % |
| --- | --- |
| IL-18 variant polypeptide M1 (ligand) YFPKLKSKLSVIRNLNDQVLFIDQGNRPLFEDMTDSDCRDNAPRTIFIISMYKHSDRRGMAVTISVKCEKISTLSCENKIISFKEMNPPDVIKDTKSDIIFFQVSVPGHDNKMQFESSSYEGYFLACEKERDLFKLILKKEDELGDRSIMFTVQNED | 89.8 |
| IL-18 variant polypeptide M23 (ligand) YFPKLRSKLSVIRNLNDQVLFIDQGNRPLFEDMTDSDCRDNAPRTIFIISMYKYSTRRGMAVTISVKCEKISTLSCENKIISFKEMNPPDNIKDTKSDIIFFQRSVPGHDNKMQFESSSYEGYFLACEKERDLFKLILKKEDELGDRSIMFTVQNED | 2.36 |

According to the records, this binder IL-18 variant polypeptide M15 (ligand) YFPKLRSKLSVIRNLNDQVLFIDQGNRPLFEDMTDSDCRDNAPRTIFIISMYKSSYTRGMAVTISVKCEKISTLSCENKIISFKEMNPPDGIKDTKSDIIFFQRSVPGHDNKMQFESSSYEGYFLACEKERDLFKLILKKEDELGDRSIMFTVQNED displays % of fluorescence positive cells of 95
